Test system: SK-OV-3 ovarian
test.description: NCI tumour cell line growth inhibition, 48 h
endpoint: TGI

INSERT INTO results (compound, endpoint, measured_value) VALUES
  ('Cc1cc(C)c(S(=O)(=O)N(CCCCN)OCCCN)c(C)c1', 'TGI', '31.8 µM'),
  ('O=C(/C=C/c1ccc(C(F)(F)F)cc1)c1ccc(Nc2nc(NCCO)nc(NCCO)n2)cc1', 'TGI', '15.1 µM'),
  ('CC(NC(=O)/C(=C/c1ccccc1O)NC(=O)c1ccccc1)C(=O)O (centres undefined)', 'TGI', '50.2 µM'),
  ('N#Cc1cccc(NC(=O)c2ccc(C(=O)O)c(C(=O)c3ccc(C(=O)O)c(C(=O)Nc4cccc(C#N)c4)c3)c2)c1', 'TGI', '> 100 µM'),
  ('CCc1nnc(-n2c(C)nc3cc(Cl)ccc3c2=O)s1', 'TGI', '> 100 µM'),
  ('COC(=O)C[CH](C(=O)OC)[Ge]([CH3])([CH3])[S]c1ccccc1 (centres undefined)', 'TGI', '67 µM'),
  ('O=[N+]([O-])c1cccc([N+](=O)[O-])c1S(=O)(=O)c1ccccc1', 'TGI', '31.2 µM'),
  ('COc1ccc(/C(C)=C(\c2ccc(Cl)cc2)c2ccc(OCCN3CCCC3)cc2)cc1', 'TGI', '10.7 µM'),
  ('O=C(N/N=C(/c1nc2ccc(Cl)cc2[nH]c1=O)C(O)c1ccc(Cl)cc1Cl)c1ccncc1 (centres undefined)', 'TGI', '> 100 µM'),
  ('Cl.[Pt].[c-]1ccccc1-c1ccccn1.c1ccc(P(c2ccccc2)C([PH+](c2ccccc2)c2ccccc2)[PH+](c2ccccc2)c2ccccc2)cc1', 'TGI', '> 100 µM'),
  ('Cn1nc(C(F)(F)F)c(-c2ccc(Cl)c(C(F)(F)F)c2)c1-c1ccc(OCc2ccc(Cl)cc2)cc1O', 'TGI', '4.32 µM'),
  ('CCOC(=O)c1cc2c(OC(C)=O)ccc(OC(C)=O)c2s1', 'TGI', '22.7 µM'),
  ('CC(=O)N(CN1C(=O)CCC1C(=O)O)c1ccccc1 (centres undefined)', 'TGI', '> 100 µM'),
  ('Cc1c[nH]c2c1C13CC1CN(C(=O)c1cc4cc(NC(=O)c5cc6ccccc6o5)ccc4[nH]1)C3=CC2=O (centres undefined)', 'TGI', '0.218 µg/mL'),
  ('COc1ccc(SC2c3cc(OC)c(OC)cc3Oc3nc(N)c(C#N)c(N)c32)cc1 (centres undefined)', 'TGI', '3.2 µM'),
  ('Nc1ncnc2c1c(C(F)(F)F)cn2[C@@H]1O[C@H](CO)[C@@H](O)[C@H]1O', 'TGI', '> 100 µM'),
  ('CC#C[C@@]1(O)CCCC[C@@H]1O', 'TGI', '> 100 µM'),
  ('OC1CCCC1C(O)(C(F)(F)F)C(F)(F)F (centres undefined)', 'TGI', '> 100 µM'),
  ('Cc1cc(NS(=O)(=O)c2ccc(Nc3c4ccccc4nc4c(C(=O)Nc5ccc(S(=O)(=O)N=C(N)N)cc5)cccc34)cc2)no1', 'TGI', '> 100 µM');
